- assay.method.text: chemical genetic growth profiling, strain panel (AID 1159580);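 also: tested at 20 µM; growth read once vehicle control cultures reached saturation at 30 °C; 1 = growth at the plate median or of vehicle wells; lower values mean less growth of the strain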
- run.conditions: S. cerevisiae deletion strains, growth OD, locus YDL101C, strain DUN1, stronger effect = lower value
In all, about 5,500 compounds went through this assay and about 2,000 (36%) were called active. Not shown: some 18% with an inconclusive outcome. The list shows a part of the results.
Provide the reported normalized growth of each item.
One number for each entry.

| compound | experimental.readout | value.measured |
| --- | --- | --- |
| COC(=O)/C=C/C(C)=C/C=C/C(C)=C/C=C/C=C(C)/C=C/C=C(C)/C=C/C(=O)O | normalized growth | 1.02 |
| S=c1nc2[nH]c3ccccc3c2n[nH]1 | normalized growth | 0.985 |
| CCCCCCCCCCCCN1CNC(=S)NC1 | normalized growth | 0.652 |
| c1ccc2c(c1)CCCC2C1=NCCN1 (configuration not stated) | normalized growth | 1.01 |
| O=C(NCc1ccc(Cl)c(Cl)c1)c1cccnc1OCC(F)(F)F | normalized growth | 0.958 |

Dear reader, for each entry below, please note its normalized growth.
1. COc1cc(CNC(=O)CCCC/C=C/C(C)C)ccc1O
2. COc1ccc2c(c1)OC/C(=C\c1ccc(OC)c(O)c1)C2=O

Output:
1: 1.01; 2: 0.665

* * *

- assay.method.text: chemical genetic growth profiling, strain panel (AID 1159580);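 also: tested at 20 µM; growth read once vehicle control cultures reached saturation at 30 °C; 1 = growth at the plate median or of vehicle wells; lower values mean less growth of the strain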
- run.conditions: S. cerevisiae deletion strains, growth OD, locus YDL074C, strain BRE1, stronger effect = lower value
In all, about 5,500 compounds went through this assay and about 2,000 (36%) were called active. About 18% were inconclusive and are not listed. Some of the results follow.
Could you please report measured normalized growth for the items listed next?
Answers are plain numbers.

Can you give me normalized growth for all of these, one by one?
1. CCC(C)C(=O)O[C@@H]1C[C@@]2(C)[C@H](c3ccoc3)OC(=O)CC23OC2(C)OC34[C@H](OC(=O)C(C)C)[C@@]3(O)[C@@H](OC(=O)C5(C)OC5C)[C@@]5(C)C[C@]3(O)[C@@](C)([C@H]5CC(=O)OC)C14O2 (stereo partly drawn)
2. Oc1cc(O)c2c(c1)O[C@H](c1cc(O)c(O)c(O)c1)[C@H](O)C2
3. O=C(OCC(O)CO)c1ccccc1Nc1ccnc2cc(Cl)ccc12 (stereo not drawn)

Output:
1: 1.01; 2: 0.981; 3: 0.978

* * *

- assay.method.text: chemical genetic growth profiling, strain panel (AID 1159580);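 also: tested at 20 µM; growth read once vehicle control cultures reached saturation at 30 °C; 1 = growth at the plate median or of vehicle wells; lower values mean less growth of the strain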
- run.conditions: S. cerevisiae deletion strains, growth OD, locus YGL240W, strain doc1, stronger effect = lower value
The whole screen tested about 5,500 compounds, of which about 2,000 (36%) were called active. Inconclusive results (about 18%) are left out. The list shows a part of the results.
Assign normalized growth to each entry below.
Numbers only.

| compound | normalized growth |
| --- | --- |
| CNC(=O)O/N=C(\C)SC | 0.987 |
| CC1COc2c(N3CCN(C)CC3)c(F)cc3c(=O)c(C(=O)O)cn1c23 (stereo not given) | 0.996 |
| COc1cc2nc(N(C)CCCNC(=O)C3CCCO3)nc(N)c2cc1OC (stereo not given) | 0.987 |
| COc1cc([C@@H]2c3cc4c(cc3C(OC3O[C@@H]5COC(C)O[C@H]5[C@H](O)[C@H]3O)C3COC(=O)[C@@H]32)OCO4)cc(OC)c1O (stereo not given in full) | 0.994 |
| CC1(O)CC2C(CC1O)C2(C)C (stereo not given) | 1.01 |

Dear colleague, could you please provide normalized growth for the compounds listed below?
1. COC(=O)C[C@H]1C2(C)CC34OC5(C)O[C@@]6([C@H](OC(C)=O)C(OC(C)=O)[C@]7(C)C(/C(=C(/O)C(C)C)C(=O)O[C@H]7c7ccoc7)[C@@]6(O5)[C@H](OC(C)=O)[C@@]3(O)C2OC(=O)C(C)C)[C@]14C (stereo not given in full)
2. C=CC[C@]1(O)CCC2C3CCC4=CC(=O)CCC4=C3C=C[C@@]21C (stereo not given in full)

Output:
1: 0.975; 2: 0.989

I need normalized growth for every entry listed below, if you could help.
1. O=C1C(Cl)=C(Cl)C(=O)C(Cl)=C1Cl
2. CCC(C)C(=O)O[C@@H]1C[C@@]2(C)[C@H](c3ccoc3)OC(=O)CC23OC2(C)OC34[C@H](OC(=O)C(C)C)[C@@]3(O)[C@@H](OC(=O)C5(C)OC5C)[C@@]5(C)C[C@]3(O)[C@@](C)([C@H]5CC(=O)OC)C14O2 (stereo not given in full)
3. CC(=O)O[C@H]1C[C@@H](OC(C)=O)C(C)(C)C2CC(=O)[C@]3(C)C(CC[C@@]4(C)[C@H](C(=O)O)OC(=O)C5OC543)[C@]21C (stereo not given in full)
4. C#CCN(C)Cc1ccccc1

Output:
1. 0.99
2. 1
3. 0.974
4. 0.977

Each compound below has a recorded value; state its normalized growth.
1. COc1cc([C@@H]2c3cc4c(cc3[C@@H](O)C3COC(=O)C32)OCO4)cc(OC)c1O (stereo not given in full)
2. O=C(O)c1cc2cc(F)ccc2[nH]1
3. NCCCS(=O)(=O)O
4. OCC(O)CN1CCN(c2ccccc2)CC1 (stereo not given)
5. C#CCCCCCCCCCCCc1ccco1
6. CCn1cc(C(=O)O)c(=O)c2cc(F)c(N3CCNCC3)nc21
7. C/C=C(\C)C(=O)O[C@H]1C[C@@H](OC(C)=O)[C@@]2(C(=O)OC)CO[C@@H]3C2[C@]12CO[C@](O)(C(=O)OC)[C@H]2[C@](C)(C12O[C@@]1(C)[C@H]1C[C@@H]2OC2OC=C[C@@]21O)[C@@H]3O (stereo not given in full)

Output:
1. 1.01
2. 1.01
3. 1
4. 1.01
5. 0.995
6. 0.975
7. 1

Record normalized growth for all entries; do not skip any.
1. CC1(C)S[C@@H]2[C@H](NC(=O)[C@H](N)c3ccccc3)C(=O)N2[C@H]1C(=O)O
2. OCCc1ccccc1
3. CCC(C)C(=O)O[C@@H]1C[C@@]2(C)[C@H](c3ccoc3)OC(=O)CC23OC2(C)O[C@]14[C@]1(C)[C@@H](CC(=O)OC)C5(C)CC1(O)[C@](O)(C5OC(=O)C1(C)OC1C)[C@@H](OC(C)=O)[C@]34O2 (stereo not given in full)
4. COc1ccc(CN(CCN(C)C)c2ccccn2)cc1

Output:
0.991
0.977
0.977
0.991

Can you give me normalized growth for all of these, one by one?
1. O=c1cccc2ccc(O)c(O)c2c1O
2. CCn1cc(C(=O)O)c(=O)c2cc(F)c(N3CCNC(C)C3)c(F)c21 (stereo not given)
3. Clc1ccc(C(OCCN2CCCCC2)c2ccccc2)cc1 (stereo not given)

Output:
1. 0.995
2. 1.01
3. 1.02

meta.source: PubChem BioAssay AID1159580
